# Measurement Notes: Selectivity index, ratio of antiproliferative IC50 for African green monkey Vero cells to antiproliferative IC50 for human HeLa cells
# Format: toxicity
# Test Settings: Vero cells versus HeLa cells, read-out: Ratio IC50
Quantity: selectivity ratio
// keep it numeric: no unit symbol after the value

Illustrative cases are given below, each with its answer.
1. CC(=O)O[C@@]12CO[C@@H]1C[C@H](O)[C@@]1(C)C(=O)[C@H](O)C3=C(C)[C@@H](OC(=O)[C@H](O)[C@@H](NC(=O)OC(C)(C)C)c4ccccc4)C[C@@](O)([C@@H](OC(=O)c4ccccc4)[C@H]21)C3(C)C [DOCETAXEL ANHYDROUS]: 1.9
2. C=C(C)[C@@H]1CC[C@]2(C(=O)O)CC[C@]3(C)[C@H](CC[C@@H]4[C@@]5(C)CC[C@H](O)C(C)(C)[C@@H]5CC[C@]43C)[C@@H]12: 1.5

API: the following record is the query input.
Quick one: selectivity ratio of C=C(C)[C@@H]1CC[C@]2(C(=O)O)CC[C@]3(C)[C@H](CC[C@@H]4[C@@]5(C)CC[C@@H](O)C(C)(C)[C@@H]5CC[C@]43C)[C@@H]12 [EPIBETULINIC ACID] ? 1.3

###

# Measurement Notes: Selectivity index, ratio of cytotoxic CC50 for African green monkey Vero cells to cytotoxic CC50 for human MDA-MB-231 cells
# Format: toxicity
# Test Settings: Vero cells versus MDA-MB-231 cells, read-out: Selectivity Index
Quantity: selectivity ratio
// keep it numeric: no unit symbol after the value

Illustrative cases are given below, each with its answer.
1) C=C(C)[C@@H]1CC[C@]2(C(=O)O)CC[C@]3(C)[C@H](CC[C@@H]4[C@@]5(C)CC[C@@H](O)[C@](C)(CO)[C@@H]5CC[C@]43C)[C@@H]12: 1.3
2) C=C(C)[C@@H]1CC[C@]2(C(=O)O)CC[C@]3(C)[C@H](CC[C@@H]4[C@@]5(C)CC[C@H](O)C(C)(C)[C@@H]5CC[C@]43C)[C@@H]12: 0.4

API: the following record is the query input.
Quick one: selectivity ratio of CC(=O)O[C@@]12CO[C@@H]1C[C@H](O)[C@@]1(C)C(=O)[C@H](O)C3=C(C)[C@@H](OC(=O)[C@H](O)[C@@H](NC(=O)OC(C)(C)C)c4ccccc4)C[C@@](O)([C@@H](OC(=O)c4ccccc4)[C@H]21)C3(C)C [DOCETAXEL ANHYDROUS] ? 6.8

###

# Measurement Notes: Selectivity index, ratio of cytotoxic CC50 for African green monkey Vero cells to cytotoxic CC50 for human KB cells
# Assay type: toxicity
# Test Settings: Vero cells versus KB cells, read-out: Selectivity Index
Quantity: selectivity ratio
// keep it numeric: no unit symbol after the value

Illustrative cases are given below, each with its answer.
1) CC(=O)O[C@@]12CO[C@@H]1C[C@H](O)[C@@]1(C)C(=O)[C@H](O)C3=C(C)[C@@H](OC(=O)[C@H](O)[C@@H](NC(=O)OC(C)(C)C)c4ccccc4)C[C@@](O)([C@@H](OC(=O)c4ccccc4)[C@H]21)C3(C)C [DOCETAXEL ANHYDROUS]: 7.2
2) C=C(C)[C@@H]1CC[C@]2(C(=O)O)CC[C@]3(C)[C@H](CC[C@@H]4[C@@]5(C)CC[C@H](O)C(C)(C)[C@@H]5CC[C@]43C)[C@@H]12: 2.4
3) C=C(C)[C@@H]1CC[C@]2(C(=O)O)CC[C@]3(C)[C@H](CC[C@@H]4[C@@]5(C)CC[C@@H](O)[C@](C)(CO)[C@@H]5CC[C@]43C)[C@@H]12: 18.3

API: the following record is the query input.
Quick one: selectivity ratio of C=C(C)[C@@H]1CC[C@]2(C(=O)O)CC[C@]3(C)[C@H](CC[C@@H]4[C@@]5(C)CC[C@H]6OC(C)(C)OC[C@]6(C)[C@@H]5CC[C@]43C)[C@@H]12 ? 41
